- Measured target: HTR5A (Homo sapiens, UniProt P47898)
- Construct: purchased Promega (in-house HiBiT-GPCR construct library, NanoBRET)
- Sequence (P47898 whole entry): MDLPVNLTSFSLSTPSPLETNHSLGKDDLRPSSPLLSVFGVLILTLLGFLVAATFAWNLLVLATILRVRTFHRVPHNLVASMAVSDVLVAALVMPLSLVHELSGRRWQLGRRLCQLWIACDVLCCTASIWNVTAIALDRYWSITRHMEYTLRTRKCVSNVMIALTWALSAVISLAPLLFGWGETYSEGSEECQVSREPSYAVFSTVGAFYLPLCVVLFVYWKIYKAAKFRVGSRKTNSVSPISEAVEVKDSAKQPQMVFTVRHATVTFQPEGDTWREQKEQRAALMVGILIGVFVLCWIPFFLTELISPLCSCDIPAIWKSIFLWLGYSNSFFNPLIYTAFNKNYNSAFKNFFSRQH
- Assay overview: NanoBRET screen HiBiT-HTR5A in HEK293
- Format: binding
- Details: HTR5A; tracer 0.1μM
Binary call on NanoBRET Fold Response with cut-off 1: strictly below means 1.0, and equality or higher means 0.0.

O=C(CCOCCOCCOCCOCCNC(=O)CCc1ccc2n1[B-](F)(F)[N+]1=C(c3ccc[nH]3)C=CC1=C2)NCCCN1CCN(C2=Nc3ccccc3Oc3ccc(Cl)cc32)CC1 ... 1.0

In the record for Cc1nc2n(c(=O)c1CCN1CCC(c3noc4cc(F)ccc34)CC1)CCCC2OC(=O)NCCOCCOCCOCCOCCNC(=O)CCc1ccc2n1[B-](F)(F)[N+]1=C(c3ccc[nH]3)C=CC1=C2 (centres unmarked) , is NanoBRET Fold Response less than 1?
0.0

In the record for O=C(CCc1ccc2n1[B-](F)(F)[N+]1=C(c3ccc[nH]3)C=CC1=C2)NCc1ccc(C(=O)NCCOCCC(=O)N[C@@H]2CC[C@@]3(O)[C@H]4Cc5ccc(O)c6c5[C@@]3(CCN4CC3CC3)[C@H]2O6)cc1 [Naltrexone-3-NB590] , is NanoBRET Fold Response less than 1?
1.0

* * *

- Measured target: FSHR (Homo sapiens, UniProt P23945)
- Construct: purchased Promega (in-house HiBiT-GPCR construct library, NanoBRET)
- Sequence (P23945 18-695): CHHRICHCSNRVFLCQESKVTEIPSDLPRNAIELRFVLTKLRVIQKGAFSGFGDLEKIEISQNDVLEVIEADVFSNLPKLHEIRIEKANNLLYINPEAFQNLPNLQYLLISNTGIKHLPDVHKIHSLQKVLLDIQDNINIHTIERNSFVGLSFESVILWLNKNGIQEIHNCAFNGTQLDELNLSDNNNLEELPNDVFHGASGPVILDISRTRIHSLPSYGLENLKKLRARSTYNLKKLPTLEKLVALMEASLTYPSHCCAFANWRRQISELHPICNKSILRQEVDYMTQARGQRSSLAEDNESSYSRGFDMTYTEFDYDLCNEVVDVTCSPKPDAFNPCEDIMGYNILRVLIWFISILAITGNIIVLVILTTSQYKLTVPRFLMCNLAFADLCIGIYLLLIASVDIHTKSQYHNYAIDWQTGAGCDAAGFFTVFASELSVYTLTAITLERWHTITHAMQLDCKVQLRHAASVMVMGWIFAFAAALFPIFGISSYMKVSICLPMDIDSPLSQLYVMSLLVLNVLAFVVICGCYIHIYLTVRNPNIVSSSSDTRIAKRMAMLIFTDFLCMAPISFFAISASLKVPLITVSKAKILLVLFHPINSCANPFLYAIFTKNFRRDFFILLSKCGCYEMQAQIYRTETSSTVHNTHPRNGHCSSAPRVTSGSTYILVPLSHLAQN
- Assay overview: NanoBRET screen HiBiT-FSHR in HEK293
- Format: binding
- Details: FSHR; tracer 1μM
Parameter: NanoBRET Fold Response
Keep the answer to the number alone.

O=C(CCc1ccc2n1[B-](F)(F)[N+]1=C(c3ccc[nH]3)C=CC1=C2)NCc1ccc(C(=O)NCCOCCC(=O)N[C@@H]2CC[C@@]3(O)[C@H]4Cc5ccc(O)c6c5[C@@]3(CCN4CC3CC3)[C@H]2O6)cc1 [Naltrexone-3-NB590] ... 1.07

Record lookup: for FSHR (Homo sapiens, UniProt P23945), what NanoBRET Fold Response belongs to "COc1ccccc1N1CCN(CCCCN2C(=O)c3ccc(CNC(=O)CCOCCNC(=O)c4ccc(CNC(=O)CCc5ccc6n5[B-](F)(F)[N+]5=C(c7ccc[nH]7)C=CC5=C6)cc4)cc3C2=O)CC1" ?
1.12

Record lookup: for FSHR (Homo sapiens, UniProt P23945), what NanoBRET Fold Response belongs to "CCCn1c(=O)c2[nH]c(-c3ccc(OCC(=O)NCCNC(=O)CCOCCNC(=O)c4ccc(CNC(=O)CCc5ccc6n5[B-](F)(F)[N+]5=C(c7ccc[nH]7)C=CC5=C6)cc4)cc3)nc2n(CCC)c1=O" ?
1.04

Record lookup: for FSHR (Homo sapiens, UniProt P23945), what NanoBRET Fold Response belongs to "O=C(CCc1ccc2n1[B-](F)(F)[N+]1=C(c3ccc[nH]3)C=CC1=C2)NCCOCCOCCNC(=O)OCCOCCN1CCN(C2=Nc3ccccc3Sc3ccccc32)CC1" ?
1.07

Record lookup: for FSHR (Homo sapiens, UniProt P23945), what NanoBRET Fold Response belongs to "CC(C)N(CC[C@H](c1ccccc1)c1cc(CCNC(=O)CCOCCOCCOCCOCCNC(=O)CCc2ccc3n2[B-](F)(F)[N+]2=C(c4ccc[nH]4)C=CC2=C3)ccc1O)C(C)C" ?
1.08

Record lookup: for FSHR (Homo sapiens, UniProt P23945), what NanoBRET Fold Response belongs to "N#CN=C(NCCCOc1cccc(CN2CCCCC2)c1)NCCNC(=O)CCOCCOCCOCCOCCNC(=O)CCc1ccc2n1[B-](F)(F)[N+]1=C(c3ccc[nH]3)C=CC1=C2" ?
1.06

* * *

The following compounds are shown together with reported NanoBRET Fold Response values.
- Measured target: AGTR2 (Homo sapiens, UniProt P50052)
- Construct: purchased Promega (in-house HiBiT-GPCR construct library, NanoBRET)
- Sequence (P50052 whole entry): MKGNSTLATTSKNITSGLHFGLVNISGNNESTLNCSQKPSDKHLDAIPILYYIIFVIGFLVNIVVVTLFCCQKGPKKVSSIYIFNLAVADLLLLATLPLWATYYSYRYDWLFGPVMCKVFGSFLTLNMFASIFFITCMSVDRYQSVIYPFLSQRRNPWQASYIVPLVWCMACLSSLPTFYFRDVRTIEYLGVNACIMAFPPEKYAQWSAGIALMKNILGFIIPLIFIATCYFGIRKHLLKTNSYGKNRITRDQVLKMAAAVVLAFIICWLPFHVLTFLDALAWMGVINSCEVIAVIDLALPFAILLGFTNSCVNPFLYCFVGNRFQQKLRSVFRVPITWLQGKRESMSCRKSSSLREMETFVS
- Assay overview: NanoBRET screen HiBiT-AGTR2 in HEK293
- Type: binding
- Details: AGTR2; tracer 0.1μM
Keep the answer to the number alone.

These solved cases illustrate the format of a correct answer.
O=C(CCOCCOCCOCCOCCNC(=O)CCc1ccc2n1[B-](F)(F)[N+]1=C(c3ccc[nH]3)C=CC1=C2)NCCCN1CCN(C2=Nc3ccccc3Oc3ccc(Cl)cc32)CC1 ... 1.00
O=C(CCc1ccc2n1[B-](F)(F)[N+]1=C(c3ccc[nH]3)C=CC1=C2)NCc1ccc(C(=O)NCCOCCC(=O)N[C@@H]2CC[C@@]3(O)[C@H]4Cc5ccc(O)c6c5[C@@]3(CCN4CC3CC3)[C@H]2O6)cc1 [Naltrexone-3-NB590] ... 1.23
O=C(CCc1ccc2n1[B-](F)(F)[N+]1=C(c3ccc[nH]3)C=CC1=C2)NCCOCCOCCNC(=O)OCCOCCN1CCN(C2=Nc3ccccc3Sc3ccccc32)CC1 ... 1.08

Which NanoBRET Fold Response is listed for "Cc1cc2c(s1)Nc1ccccc1N=C2N1CCN(CCCNC(=O)CCOCCOCCOCCOCCNC(=O)CCc2ccc3n2[B-](F)(F)[N+]2=C(c4ccc[nH]4)C=CC2=C3)CC1" ?
1.12

Which NanoBRET Fold Response is listed for "CC(C)N(CC[C@H](c1ccccc1)c1cc(CCNC(=O)CCOCCOCCOCCOCCNC(=O)CCc2ccc3n2[B-](F)(F)[N+]2=C(c4ccc[nH]4)C=CC2=C3)ccc1O)C(C)C" ?
1.10

Which NanoBRET Fold Response is listed for "CCCn1c(=O)c2[nH]c(-c3ccc(OCC(=O)NCCNC(=O)CCOCCNC(=O)c4ccc(CNC(=O)CCc5ccc6n5[B-](F)(F)[N+]5=C(c7ccc[nH]7)C=CC5=C6)cc4)cc3)nc2n(CCC)c1=O" ?
1.24

* * *

- Measured target: NMUR1 (Homo sapiens)
- Construct: purchased Promega (in-house HiBiT-GPCR construct library, NanoBRET)
- Sequence (Q9HB89 whole entry): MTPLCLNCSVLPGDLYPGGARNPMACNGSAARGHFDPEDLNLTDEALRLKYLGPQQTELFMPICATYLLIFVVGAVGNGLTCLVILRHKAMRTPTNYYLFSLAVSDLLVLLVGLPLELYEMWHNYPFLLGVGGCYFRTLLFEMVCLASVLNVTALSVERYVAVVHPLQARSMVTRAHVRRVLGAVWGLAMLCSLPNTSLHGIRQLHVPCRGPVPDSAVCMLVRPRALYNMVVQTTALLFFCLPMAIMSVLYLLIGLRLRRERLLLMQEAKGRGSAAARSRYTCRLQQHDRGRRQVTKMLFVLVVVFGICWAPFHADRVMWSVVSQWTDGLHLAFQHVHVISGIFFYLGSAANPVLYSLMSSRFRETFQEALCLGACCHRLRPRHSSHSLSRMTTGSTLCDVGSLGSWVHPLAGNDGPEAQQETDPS
- Assay overview: NanoBRET screen HiBiT-NMUR1 in HEK293
- Assay type: binding
- Details: NMUR1; tracer 1μM
Response key: T means NanoBRET Fold Response >= 1; F means NanoBRET Fold Response < 1.

Some solved cases for reference:
COc1ccccc1N1CCN(CCCCN2C(=O)c3ccc(CNC(=O)CCOCCNC(=O)c4ccc(CNC(=O)CCc5ccc6n5[B-](F)(F)[N+]5=C(c7ccc[nH]7)C=CC5=C6)cc4)cc3C2=O)CC1 ... F
O=C(CCOCCOCCOCCOCCNC(=O)CCc1ccc2n1[B-](F)(F)[N+]1=C(c3ccc[nH]3)C=CC1=C2)NCCCN1CCN(C2=Nc3ccccc3Oc3ccc(Cl)cc32)CC1 ... T
O=C(CCc1ccc2n1[B-](F)(F)[N+]1=C(c3ccc[nH]3)C=CC1=C2)NCc1ccc(C(=O)NCCOCCC(=O)N[C@@H]2CC[C@@]3(O)[C@H]4Cc5ccc(O)c6c5[C@@]3(CCN4CC3CC3)[C@H]2O6)cc1 [Naltrexone-3-NB590] ... T

Reported NanoBRET Fold Response at or above 1? "CC(C)N(CC[C@H](c1ccccc1)c1cc(CCNC(=O)CCOCCOCCOCCOCCNC(=O)CCc2ccc3n2[B-](F)(F)[N+]2=C(c4ccc[nH]4)C=CC2=C3)ccc1O)C(C)C"
T

* * *

- Measured target: CCR10 (Homo sapiens, UniProt P46092)
- Construct: purchased Promega (in-house HiBiT-GPCR construct library, NanoBRET)
- Sequence (P46092 whole entry): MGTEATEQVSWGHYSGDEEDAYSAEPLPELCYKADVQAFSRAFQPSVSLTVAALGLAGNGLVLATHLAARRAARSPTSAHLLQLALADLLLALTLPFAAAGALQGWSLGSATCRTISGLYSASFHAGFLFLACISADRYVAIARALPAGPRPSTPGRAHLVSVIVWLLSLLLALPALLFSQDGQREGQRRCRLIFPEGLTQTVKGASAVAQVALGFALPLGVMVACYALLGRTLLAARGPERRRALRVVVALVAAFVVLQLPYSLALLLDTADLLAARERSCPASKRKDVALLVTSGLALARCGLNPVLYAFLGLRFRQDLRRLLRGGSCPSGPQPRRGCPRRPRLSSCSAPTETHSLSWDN
- Assay overview: NanoBRET screen HiBiT-CCR10 in HEK293
- Type: binding
- Details: CCR10; tracer 0.1μM
- Method: Each tracer candidate was screened across the entire library of HiBiT-GPCR constructs using NanoBRET as the detection modality. As depicted in Figure 4A, the specificity of interactions was evaluated through decrease in BRET due to competitive displacement of a bound tracer by excess parental compound. Each tracer was analyzed for binding to each HiBiT-GPCR fusion in the absence and in the presence of competing parental compound. […]
Response key: Met means NanoBRET Fold Response >= 1; Not met means NanoBRET Fold Response < 1.

CCCn1c(=O)c2[nH]c(-c3ccc(OCC(=O)NCCNC(=O)CCOCCNC(=O)c4ccc(CNC(=O)CCc5ccc6n5[B-](F)(F)[N+]5=C(c7ccc[nH]7)C=CC5=C6)cc4)cc3)nc2n(CCC)c1=O ... Not met

For the next question, use this compound.
Reported NanoBRET Fold Response at or above 1? "CC(C)N(CC[C@H](c1ccccc1)c1cc(CCNC(=O)CCOCCOCCOCCOCCNC(=O)CCc2ccc3n2[B-](F)(F)[N+]2=C(c4ccc[nH]4)C=CC2=C3)ccc1O)C(C)C"
Met

Data origin: paper PMC8151276
